Values from patent US20030194409A1

measured-target: gp96 in the presence of herbimycin A (Mus musculus, UniProt P08113)
Construct: The mouse cDNA encoding mature gp96 (i.e., wherein the endoplasmic reticulum signal peptide has been removed) was incorporated into the pET 11 a expression vector; made in house; host or cells: Escherichia coli BL21 (pET11gp96)
Sequence (P08113 22-802): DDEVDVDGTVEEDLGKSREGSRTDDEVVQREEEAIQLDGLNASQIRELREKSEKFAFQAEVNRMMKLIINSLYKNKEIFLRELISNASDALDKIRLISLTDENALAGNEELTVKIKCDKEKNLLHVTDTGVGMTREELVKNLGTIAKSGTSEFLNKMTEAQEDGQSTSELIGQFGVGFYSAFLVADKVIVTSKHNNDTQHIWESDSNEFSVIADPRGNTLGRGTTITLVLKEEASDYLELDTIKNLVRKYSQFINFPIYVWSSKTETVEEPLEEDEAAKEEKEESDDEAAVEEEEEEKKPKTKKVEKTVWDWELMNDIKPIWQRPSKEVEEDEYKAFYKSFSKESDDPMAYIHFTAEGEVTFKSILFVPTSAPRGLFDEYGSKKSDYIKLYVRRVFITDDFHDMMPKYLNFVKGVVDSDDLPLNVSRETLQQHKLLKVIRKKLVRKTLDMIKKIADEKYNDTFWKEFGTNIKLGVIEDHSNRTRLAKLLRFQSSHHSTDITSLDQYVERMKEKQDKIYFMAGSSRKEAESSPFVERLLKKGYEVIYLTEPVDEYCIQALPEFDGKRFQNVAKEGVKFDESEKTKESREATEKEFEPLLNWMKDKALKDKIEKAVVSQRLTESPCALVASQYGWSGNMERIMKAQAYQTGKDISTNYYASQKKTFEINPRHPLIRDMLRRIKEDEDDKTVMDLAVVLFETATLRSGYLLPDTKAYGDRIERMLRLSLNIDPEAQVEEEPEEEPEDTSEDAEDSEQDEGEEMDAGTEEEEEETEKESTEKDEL
protocol-summary: Affinity panning of phage display heptapeptide library on gp96 in the presence of herbimycin A
Type: binding
condition-description: Table XVI; binding buffer with AMP-PNP instead of ATP: 20 mM HEPES pH 7.5, 100 mM KCl, 1 mM CaCl2, 1 mM MgAcetate, 1 mM AMP-PNP, TWEEN 20
measured-parameter: % actual (amino acid frequency in sequenced gp96-binding phage-expressed heptapeptides) (%)

Illustrative cases are given below, each with its answer.
Incoming: If you can, please state the reported % actual (amino acid frequency in sequenced gp96-binding phage-expressed heptapeptides) value of "N[C@@H](Cc1ccc(O)cc1)C(=O)O" .
Outgoing: 4.28

Incoming: Same question, "C[C@H](N)C(=O)O" this time
Outgoing: 8.5

Incoming: Same question, "N[C@@H](CS)C(=O)O" this time
Outgoing: 0

Incoming: Same question, "N[C@@H](CC(=O)O)C(=O)O" this time
Outgoing: 1.4

Incoming: Same question, "N[C@@H](Cc1c[nH]cn1)C(=O)O" this time
Outgoing: 12.8

Incoming: Same question, "CSCC[C@H](N)C(=O)O" this time
Outgoing: 2.85

[P] N[C@@H](CCC(=O)O)C(=O)O
[Q] CC(C)C[C@H](N)C(=O)O
Incoming: P or Q : whose % actual (amino acid frequency in sequenced gp96-binding phage-expressed heptapeptides) is greater? Mark your selection by writing its label.
Outgoing: Q
(Q: 5.7%, P: 0%)

[a] N[C@@H](CO)C(=O)O
[b] CC(C)[C@H](N)C(=O)O
[c] N[C@@H](Cc1c[nH]c2ccccc12)C(=O)O
Incoming: Sort the 3 compounds by % actual (amino acid frequency in sequenced gp96-binding phage-expressed heptapeptides); largest first, smallest last. Please list the labels according to the requested order.
Outgoing: b, a, c
(b: 8.5%, a: 4.28%, c: 2.85%)
